# credit: PubChem BioAssay (NCI)

- System: SK-MEL-28 melanoma
- Protocol Description: NCI tumour cell line growth inhibition, 48 h
Metric: TGI

[[record]]
compound = "Cc1ncn(-c2ccccc2O)c1C"
target_of_assay = "SK-MEL-28 melanoma"
reading = "> 100 µM"

[[record]]
compound = "O=P1(c2ccccc2)C(c2ccccc2)CCC1c1ccccc1 (stereo unspecified)"
target_of_assay = "SK-MEL-28 melanoma"
reading = "> 100 µM"

[[record]]
compound = "COC(=O)C(CNC(=O)/C=C/c1ccc(OC)c(OC)c1)NC(=O)/C=C/c1ccc(OC)c(OC)c1 (stereo unspecified)"
target_of_assay = "SK-MEL-28 melanoma"
reading = "> 100 µM"

[[record]]
compound = "CN(C)CCNc1ccc2ncn3c4ccc(O)cc4c(=O)c1c23"
target_of_assay = "SK-MEL-28 melanoma"
reading = "18 µM"

[[record]]
compound = "COC(=O)CCc1ccc(CCC(=O)OC)cc1"
target_of_assay = "SK-MEL-28 melanoma"
reading = "> 100 µM"

[[record]]
compound = "S=P1(Sc2ccccc2)Oc2ccc3ccccc3c2-c2c(ccc3ccccc23)O1"
target_of_assay = "SK-MEL-28 melanoma"
reading = "> 100 µM"


---

- Test system: HCC-2998 colon
- Protocol Description: NCI tumour cell line growth inhibition, 48 h
Entries and their TGI
Metric: TGI

[[record]]
compound = "CC1OC(OC2C(O)COC(OC3C(C)OC(OC4C(OC(=O)[C@]56CCC(C)(C)C[C@@H]5C5=CCC7[C@@]8(C)C[C@H](O)[C@H](OC9OC(CO)C(O)C(O)C9O)[C@@](C)(CO)[C@@H]8CC[C@@]7(C)[C@]5(C)CC6)OCC(O)C4O)C(O)C3O)C2O)C(O)C(O)C1O (stereo partly drawn)"
target_of_assay = "HCC-2998 colon"
reading = "38 µM"

[[record]]
compound = "NC(=O)c1cc(N2CC2)c([N+](=O)[O-])cc1[N+](=O)[O-]"
target_of_assay = "HCC-2998 colon"
reading = "> 200 µM"

[[record]]
compound = "CC(NC1=NCCO1)c1ccccc1Cl (stereo not drawn)"
target_of_assay = "HCC-2998 colon"
reading = "> 100 µM"

[[record]]
compound = "CCCc1nn(C)c2c(=O)[nH]c(-c3cc(S(=O)(=O)N4CCN(C)CC4)ccc3OCC)nc12"
target_of_assay = "HCC-2998 colon"
reading = "> 100 µM"

[[record]]
compound = "COc1cc(C2C=C(c3ccccc3)Oc3cc4c(cc32)OCO4)cc(OC)c1OC (stereo not drawn)"
target_of_assay = "HCC-2998 colon"
reading = "> 100 µM"

[[record]]
compound = "O=C(Nc1ccccc1)N(CCN(Cc1ccccc1)C(=O)Nc1ccccc1)CCN(Nc1ccccc1)C(=O)Nc1ccccc1"
target_of_assay = "HCC-2998 colon"
reading = "> 100 µM"

[[record]]
compound = "O=c1onc2n1-c1ccc(Cl)cc1C(=S)N1CSCC21 (stereo not drawn)"
target_of_assay = "HCC-2998 colon"
reading = "35.4 µM"

[[record]]
compound = "CCOC(=O)c1ccc(-n2cnc(-c3ccc([N+](=O)[O-])cc3)c2)cc1"
target_of_assay = "HCC-2998 colon"
reading = "> 100 µM"


---

- Test system: LOX IMVI melanoma
- Protocol Description: NCI tumour cell line growth inhibition, 48 h
Metric: GI50

[[record]]
molecule = "CN1C(=O)CCC(N2C(=O)c3cccc(NCCOCCOCCNC(=O)c4cc5c(o4)C(=O)c4ccccc4C5=O)c3C2=O)C1=O (stereo unspecified)"
reading = "1110 nM"

[[record]]
molecule = "CCC1=C(c2ccc(OC)cc2)C(C)(C)Oc2c1ccc(O)c2CN1CCCC1"
reading = "1460 nM"

[[record]]
molecule = "O=C1c2c(c(=O)[nH]c3ccccc23)[C@H](c2ccccc2)[C@@H]2CCCN12"
reading = "2300 nM"

[[record]]
molecule = "CCC(CC)n1cnc2c(-c3cnc(N)cn3)nc(N3CC4CCC(C3)O4)nc21"
reading = "428 nM"

[[record]]
molecule = "CCOC(=O)c1[nH]c2cc(Cl)ccc2c1[C@@H](C(=O)NC(C)(C)C)N(CC)C(=O)CCCCC#Cc1cccc2c1CN(C1CCC(=O)NC1=O)C2=O (stereo partly specified)"
reading = "3180 nM"

[[record]]
molecule = "CCCc1nn(C)c2c(=O)[nH]c(-c3cc(S(=O)(=O)N4CCN(C)CC4)ccc3OCC)nc12"
reading = "> 100000 nM"

[[record]]
molecule = "COc1cc2nc(Nc3cccc(Cl)c3)nc(N)c2cc1OC"
reading = "2450 nM"

[[record]]
molecule = "C(=N\\Nc1ncc(-c2cc3cc4c(cc3o2)OCO4)s1)/c1ccco1"
reading = "1350 nM"

[[record]]
molecule = "COc1cc2nc(N3CCCN(C)CC3)nc(NC3CCN(Cc4ccccc4)CC3)c2cc1OC"
reading = "1680 nM"

[[record]]
molecule = "Cc1cc2c(F)c(Oc3ncnc(Nc4ccc(N5C[C@@H](C)N[C@@H](C)C5)cc4)c3C#N)cc(F)c2[nH]1"
reading = "1600 nM"

[[record]]
molecule = "CC1(C)N=C(N)N=C(N)N1c1ccc(CNC(=O)Nc2ccc(S(=O)(=O)F)c(Cl)c2)c(Cl)c1"
reading = "396 nM"

